- Experimental target: T1, human IL-1β (human, UniProt P01584 117-269)
- T1 construct: it has 153 residues and begins APVRS; also called hIL-1β; recombinant purified human IL-1β
- Protocol description: ELISA; antibody captured on anti-human Fc, biotinylated human IL-1β titrated
Reported property: EC50 (nM)
# number only, unit nM dropped from output

Consider the worked cases shown below.
[
  {
    "Binder": "humanized anti-human IL-1β antibody 1B12.4 (antibody, V domains shown, Cloned into IgG expression vectors and made as full-length humanized antibody; also called h1B12VH.1a/h1B12VL.2b; combination 4) VH: EVQLQESGPGLVKPSETLSLTCTVSGFSLSDYGVSWIRQPPGKGLEWLGLIWGGGDTYYNSPLKSRLTISKDNSKSQVSLKLSSVTAADTAVYYCAKQRTLWGYDLYGMDYWGQGTLVTVSS VL: ETTVTQSPAFLSVTPGEKVTITCITSTDIDVDMNWYQQKPDQPPKLLISQGNTLRPGVPSRFSSSGSGTDFTFTISSLEAEDAATYYCLQSDNLPLTFGQGTKLEIK",
    "Observed result": 0.0378
  },
  {
    "Binder": "humanized anti-human IL-1β antibody 1B12.7 (antibody, V domains shown, Cloned into IgG expression vectors and made as full-length humanized antibody; also called h1B12VH.2a/h1B12VL.2a; combination 7) VH: EVQLVESGGGLVQPGGSLRLSCAVSGFTLSDYGVSWIRQAPGKGLEWLGLIWGGGDTYYNSPLKSRLTISKDNSKSTVYLQMNSLRAEDTAVYYCAKQRTLWGYDLYGMDYWGQGTLVTVSS VL: DTVVTQSPAFLSVTPGEKVTITCITSTDIDVDMNWYQQKPDQPPKLLISQGNTLRPGVPSRFSSSGSGTDFTFTISSLEAEDAATYYCLQSDNLPLTFGQGTKLEIK",
    "Observed result": 0.0582
  },
  {
    "Binder": "humanized anti-human IL-1β antibody 1B12.5 (antibody, V domains shown, Cloned into IgG expression vectors and made as full-length humanized antibody; also called h1B12VH.2a/h1B12VL.1a; combination 5) VH: EVQLVESGGGLVQPGGSLRLSCAVSGFTLSDYGVSWIRQAPGKGLEWLGLIWGGGDTYYNSPLKSRLTISKDNSKSTVYLQMNSLRAEDTAVYYCAKQRTLWGYDLYGMDYWGQGTLVTVSS VL: DTQVTQSPSSLSASVGDRVTITCITSTDIDVDMNWYQQKPGKPPKLLISQGNTLRPGVPSRFSSSGSGTDFTFTISSLQPEDFATYYCLQSDNLPLTFGQGTKLEIK",
    "Observed result": 0.0488
  },
  {
    "Binder": "humanized anti-human IL-1β antibody 1B12.2 (antibody, V domains shown, Cloned into IgG expression vectors and made as full-length humanized antibody; also called h1B12VH.1a/h1B12VL.1b; combination 2) VH: EVQLQESGPGLVKPSETLSLTCTVSGFSLSDYGVSWIRQPPGKGLEWLGLIWGGGDTYYNSPLKSRLTISKDNSKSQVSLKLSSVTAADTAVYYCAKQRTLWGYDLYGMDYWGQGTLVTVSS VL: ETTVTQSPSSLSASVGDRVTITCITSTDIDVDMNWYQQKPGKPPKLLISQGNTLRPGVPSRFSSSGSGTDFTFTISSLQPEDFATYYCLQSDNLPLTFGQGTKLEIK",
    "Observed result": 0.0376
  }
]

// moving on: another record for EC50
Q: If you can, please state the reported EC50 value of humanized anti-human IL-1β antibody 1B12.8 (antibody, V domains shown, Cloned into IgG expression vectors and made as full-length humanized antibody; also called h1B12VH.2a/h1B12VL.2b; combination 8) VH: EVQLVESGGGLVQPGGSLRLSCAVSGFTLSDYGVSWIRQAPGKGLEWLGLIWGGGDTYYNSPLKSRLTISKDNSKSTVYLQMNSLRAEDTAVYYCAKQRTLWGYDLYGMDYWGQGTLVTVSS VL: ETTVTQSPAFLSVTPGEKVTITCITSTDIDVDMNWYQQKPDQPPKLLISQGNTLRPGVPSRFSSSGSGTDFTFTISSLEAEDAATYYCLQSDNLPLTFGQGTKLEIK .
A: 0.0479

The reported measurements were obtained from patent US20110142761A1.
